Tested on: endogenous NAMPT in U2OS cells
measurement_description: Cellular NAD+ modulation assay (NAD/NADH-Glo, U2OS cells)
Assay type: cell-based
conditions_used: Homo sapiens, 24 hours incubation, cellular NAD+
readout_type: EC50

Example entries begin here.
| molecule | result |
| --- | --- |
| Cn1ncc(Cl)c1CC1c2cc(CC3COC3)ccc2C(=O)N1Cc1ccc2[nH]nnc2c1 (stereo not shown) | 500 to 5000 nM |
| [2H]C([2H])([2H])Oc1ccc(CN2C(=O)c3ccccc3C2Cc2c(C)ccnc2C#N)cc1 (stereo not shown) | < 500 nM |

Quick batch: EC50 for everything below.
1. Cn1ncc(Cl)c1CC1c2ccccc2C(=O)N1Cc1ccc(Cl)cc1 (stereo not shown)
2. Cn1ncc(Cl)c1CC1c2ccccc2C(=O)N1Cc1cnc(N)s1 (stereo not shown)

1. 5000 to 50000 nM
2. < 500 nM

Quick batch: EC50 for everything below.
1. Cn1ncc(Cl)c1CC1c2cc(Cl)ncc2C(=O)N1CC1CC2(CNC(=O)O2)C1 (stereo not shown)
2. Cn1ncc(Cl)c1CC1c2ccccc2C(=O)N1C/C(F)=C/c1c[nH]nc1Cl (stereo not shown)
3. Cn1ccc(Cl)c(CC2c3ccccc3C(=O)N2CC2CC3(CNC(=O)O3)C2)c1=O (stereo not shown)
4. Cn1ncc(Cl)c1CC1c2cc(Cl)cc(F)c2C2(CC2)N1CC1CC2(CNC(=O)O2)C1 (stereo not shown)
5. O=C1c2ccccc2C(Cc2ncccc2Br)N1CC1CCc2[nH]nnc2C1 (stereo not shown)
6. Cn1ncc(Cl)c1CC1c2cc(C3CN(C(=O)OC(C)(C)C)C3)ccc2C(=O)N1CC1CC2(CNC(=O)O2)C1 (stereo not shown)
7. O=C1NCC2(CC(CN3C(=O)c4ccccc4C3Cc3nnsc3Cl)C2)O1 (stereo not shown)

1: 500 to 5000 nM; 2: 500 to 5000 nM; 3: < 500 nM; 4: 500 to 5000 nM; 5: < 500 nM; 6: 500 to 5000 nM; 7: 500 to 5000 nM

Quick batch: EC50 for everything below.
1. Cc1ncnc(C#N)c1CC1c2ccccc2C(=O)N1CC1CC2(CNC(=O)O2)C1 (stereo not shown)
2. Cc1noc2cc(CN3C(=O)c4ccccc4C3Cc3c(Cl)cnn3C)ccc12 (stereo not shown)

1: < 500 nM; 2: < 500 nM

----------
target_entity: human enzyme NAMPT (full length) (Homo sapiens, UniProt P43490)
Construct: human enzyme NAMPT (full length)
Sequence (P43490 whole entry): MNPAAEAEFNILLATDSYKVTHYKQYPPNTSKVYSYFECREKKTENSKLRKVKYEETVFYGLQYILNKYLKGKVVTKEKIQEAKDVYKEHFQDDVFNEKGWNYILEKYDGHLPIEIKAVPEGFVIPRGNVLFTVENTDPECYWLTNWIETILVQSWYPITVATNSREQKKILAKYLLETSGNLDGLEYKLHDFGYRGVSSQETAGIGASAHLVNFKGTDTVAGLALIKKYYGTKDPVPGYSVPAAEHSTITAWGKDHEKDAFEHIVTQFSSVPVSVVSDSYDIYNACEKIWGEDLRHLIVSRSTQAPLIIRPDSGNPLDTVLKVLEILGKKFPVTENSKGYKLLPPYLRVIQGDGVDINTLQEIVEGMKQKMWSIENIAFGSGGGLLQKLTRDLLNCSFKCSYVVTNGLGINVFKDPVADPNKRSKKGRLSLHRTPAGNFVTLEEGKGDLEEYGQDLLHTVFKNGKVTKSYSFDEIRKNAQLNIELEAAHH
measurement_description: NMN fluorescence biochemical assay (stimulation of NMN synthesis by NAMPT)
conditions_used: NMN synthesis by purified human NAMPT (100 nM); concentration giving half-maximal activation; read-out: Enzymatic EC50
What EC50 was measured for each of the following?

| molecule | readout_type | result |
| --- | --- | --- |
| CC1c2ccccc2C(=O)N1Cc1cc(F)c2[nH]c(=O)oc2c1 (stereo not drawn) | EC50 | ≥ 5 µM |
| Cc1cccc2c1C(C)N(Cc1ccc3[nH]c(=O)oc3c1)C2=O (stereo not drawn) | EC50 | ≥ 5 µM |

With those in mind, consider the next molecule.
get_value(item= N#Cc1cccnc1CC1c2ccccc2C(=O)N1Cc1ccc2[nH]c(=O)oc2c1 (stereo not drawn) , readout=EC50) returns 0.5 to 5 µM

----------
target_entity: human enzyme NAMPT (full length) (Homo sapiens, UniProt P43490)
Construct: human enzyme NAMPT (full length)
measurement_description: NMN fluorescence biochemical assay (stimulation of NMN synthesis by NAMPT)
conditions_used: NMN fluorescence assay, purified human NAMPT 100 nM; concentration giving half-maximal activation; read-out: Enzymatic EC50
What EC50 was measured for each of the following?

Quick batch: EC50 for everything below.
1. Cn1ncc(Cl)c1C[C@@H]1c2ccccc2C(=O)N1C[C@H]1C[C@]2(CNC(=O)O2)C1
2. Cc1cc(F)c2c(c1)C(Cc1c(Cl)cnn1C)N(CC1CC3(CNC(=O)O3)C1)C2=O (centres unmarked)
3. Cc1n[nH]cc1/C=C(/F)CN1C(=O)c2ccccc2C1Cc1c(Cl)cnn1C (centres unmarked)
4. Cn1ncc(Cl)c1CC1c2cc(F)ccc2C(=O)N1CC1CC2(CNC(=O)O2)C1 (centres unmarked)
5. Cn1ncc(Cl)c1CC1c2ccccc2C(=O)N1CC#Cc1c[nH]cn1 (centres unmarked)
6. CN(C)c1ccc2c(c1)C(Cc1c(Cl)cnn1C)N(CC1CC3(CNC(=O)O3)C1)C2=O (centres unmarked)

["500 to 5000 nM", "< 500 nM", "500 to 5000 nM", "500 to 5000 nM", "500 to 5000 nM", "< 500 nM"]

Quick batch: EC50 for everything below.
1. Cc1ccnc(C(N)=O)c1CC1c2ccccc2C(=O)N1Cc1ccc2[nH]nnc2c1 (centres unmarked)
2. CN(C)CCOc1nn(C)c(CC2c3ccccc3C(=O)N2CC2CC3(CNC(=O)O3)C2)c1Cl (centres unmarked)
3. Cn1ncc(Cl)c1CC1c2cc(CN3CCCC3)ccc2C(=O)N1CC1CC2(CNC(=O)O2)C1 (centres unmarked)
4. O=C1c2ccccc2C(Cc2ncccc2Br)N1C/C=C/c1c[nH]nn1 (centres unmarked)
5. COc1ccc(CN2C(=O)c3cnccc3C2Cc2c(C)ccnc2C#N)cc1 (centres unmarked)

1. 500 to 5000 nM
2. < 500 nM
3. 500 to 5000 nM
4. < 500 nM
5. ≥ 5000 nM

----------
target_entity: human enzyme NAMPT (full length) (Homo sapiens)
Construct: human enzyme NAMPT (full length)
measurement_description: NMN fluorescence biochemical assay (stimulation of NMN synthesis by NAMPT)
conditions_used: fold change of maximal activation compared to DMSO
Method: Certain compounds described herein were assayed for their ability to stimulate the synthesis of nicotinamide mononucleotide (NMN) by human enzyme NAMPT (full length). […] Fluorescence (Ex/Em=382/445 nm) was measured using an Envision plate reader. The potency measurements for the test compounds were quantified and represented as EC50 (concentration of a compound that gives half-maximal activation) and Emax (fold change of a compound's maximal activation compared to DMSO).
readout_type: Enzymatic Emax

| compound | result |
| --- | --- |
| O=C1c2ccccc2C(Cc2nn(C3CC4(COC4)C3)cc2Cl)N1Cc1ccc2[nH]nnc2c1 (centres unmarked) | B (3≥B>2) |
| Cn1nc(C2CC2)c(Cl)c1CC1c2ccccc2C(=O)N1Cc1ccc2[nH]nnc2c1 (centres unmarked) | B (3≥B>2) |
| Cn1ncc(Cl)c1CC1c2cc(C#N)ccc2C(=O)N1Cc1ccc2[nH]nnc2c1 (centres unmarked) | A (A>3) |
| Cc1cc2[nH]c(=O)oc2cc1CN1C(=O)c2ccccc2C1Cc1ncccc1Br (centres unmarked) | B (3≥B>2) |
| Cc1ccnc(C#N)c1CC1c2cc(C3CC3)ccc2C(=O)N1Cc1ccc2[nH]nnc2c1 (centres unmarked) | B (3≥B>2) |
| COc1ccc(CN2C(=O)c3ccc(Br)cc3C2Cc2c(Cl)cnn2C)cn1 (centres unmarked) | A (A>3) |
| O=C1c2ccccc2C(Cc2nn(C(CO)CO)cc2Cl)N1Cc1ccc2[nH]nnc2c1 (centres unmarked) | B (3≥B>2) |
| CC1c2cc(NC3CCCC3)ccc2C(=O)N1Cc1ccc2[nH]c(=O)oc2c1 (centres unmarked) | A (A>3) |
| COc1ccc2c(c1)CN(Cc1ccc(O)cc1)C2=O | A (A>3) |
| O=C1c2ccccc2C(Cc2ccccn2)N1Cc1ccc2[nH]c(=O)oc2c1 (centres unmarked) | A (A>3) |

Quick batch: Enzymatic Emax for everything below.
1. CN1CCn2c(cc(Cl)c2CC2c3ccccc3C(=O)N2CC2CC3(CNC(=O)O3)C2)C1 (centres unmarked)
2. CC1c2cc(NC3CC3)ccc2C(=O)N1Cc1ccc2[nH]c(=O)oc2c1 (single isomer, unassigned)
3. Cn1ncc(Cl)c1CC1c2ccccc2C(=O)N1C[C@@H]1C[C@@H]1c1c[nH]nn1 (relative stereo)
4. Cc1cccnc1C[C@@H]1c2ccccc2C(=O)N1Cc1ccc2[nH]c(=O)oc2c1
5. CN(C)C1CN(c2ccc3c(c2)C(Cc2c(Cl)cnn2C)N(CC2CC4(CNC(=O)O4)C2)C3=O)C1 (centres unmarked)
6. O=C1c2ccccc2C(Cc2ncccc2Br)N1Cc1ccc(=O)[nH]c1 (centres unmarked)
7. Nn1c(=O)oc2cc(CN3C(=O)c4ccccc4C3Cc3ncccc3Br)ccc21 (centres unmarked)

B (3≥B>2)
A (A>3)
C (2≥C)
C (2≥C)
B (3≥B>2)
A (A>3)
A (A>3)

Quick batch: Enzymatic Emax for everything below.
1. O=C1c2ccccc2C(Cc2ncccc2Br)N1Cc1ccc(O)cn1 (centres unmarked)
2. O=C1c2ccccc2C(Cc2ncccc2Br)N1CC1CCc2[nH]nnc2C1 (centres unmarked)
3. Cn1ncc(Cl)c1CC1c2ccccc2C(=O)N1C/C=C/c1nn[nH]c1F (centres unmarked)
4. Cc1ccc(=O)n(C)c1CC1c2ccccc2C(=O)N1CC1CC2(CNC(=O)O2)C1 (centres unmarked)
5. CC1c2cc(C3COC3)ccc2C(=O)N1Cc1ccc2[nH]c(=O)oc2c1 (single isomer, unassigned)
6. Cn1ncc(Cl)c1CC1c2ccccc2C(=O)N1Cc1ccc(O)nc1 (centres unmarked)

1. A (A>3)
2. A (A>3)
3. B (3≥B>2)
4. B (3≥B>2)
5. B (3≥B>2)
6. B (3≥B>2)
